These data points were gathered from paper PMC6965684.

Exercise: for every item that follows, state its recorded EC50.
biological target: 5-ht1E receptor (Homo sapiens); construct: gene HTR1E; full-length human recombinant receptor in CHO-K1 cells (Ogeda); crude membranes; assay: biochemical; assay type: CHO-K1 membranes; set-up: GTPγS agonist functional assay; conditions: GTPγS
Sequence (P28566 whole entry): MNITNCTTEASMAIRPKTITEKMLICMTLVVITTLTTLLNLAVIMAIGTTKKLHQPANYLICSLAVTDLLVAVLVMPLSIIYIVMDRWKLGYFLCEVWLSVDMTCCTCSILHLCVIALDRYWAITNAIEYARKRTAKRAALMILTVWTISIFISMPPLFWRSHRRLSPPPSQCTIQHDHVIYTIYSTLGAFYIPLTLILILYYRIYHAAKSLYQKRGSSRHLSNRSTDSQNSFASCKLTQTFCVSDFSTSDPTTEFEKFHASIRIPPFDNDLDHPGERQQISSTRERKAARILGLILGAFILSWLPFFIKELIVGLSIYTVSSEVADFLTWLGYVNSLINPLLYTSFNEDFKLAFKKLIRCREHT
Structures can show the parent of a compound that is named as a salt.
# number only, unit nM dropped from output

Problem: If you can, please state the reported EC50 value of CNS(=O)(=O)CCc1ccc2[nH]cc(C3CCN(C)CC3)c2c1 [Naratriptan hydrochloride] .
Solution: 6.76

Problem: If you can, please state the reported EC50 value of CNS(=O)(=O)Cc1ccc2[nH]cc(CCN(C)C)c2c1 [Sumatriptan succinate] .
Solution: 1620

Problem: If you can, please state the reported EC50 value of CN1CCC[C@@H]1Cc1c[nH]c2ccc(CCS(=O)(=O)c3ccccc3)cc12 [Eletriptan hydrobromide] .
Solution: 126

====

biological target: 5-HT2A receptor (Homo sapiens); construct: gene HTR2A; full-length human recombinant receptor in CHO-K1 cells (Ogeda); crude membranes; assay: biochemical; format: CHO-K1 membranes; parameters: radioligand competition binding on cell membranes, filtration and TopCount scintillation counting; settings: radioligand displacement; read-out: 5‐HT2A / pIC50 (converted)
Sequence (P28223 whole entry): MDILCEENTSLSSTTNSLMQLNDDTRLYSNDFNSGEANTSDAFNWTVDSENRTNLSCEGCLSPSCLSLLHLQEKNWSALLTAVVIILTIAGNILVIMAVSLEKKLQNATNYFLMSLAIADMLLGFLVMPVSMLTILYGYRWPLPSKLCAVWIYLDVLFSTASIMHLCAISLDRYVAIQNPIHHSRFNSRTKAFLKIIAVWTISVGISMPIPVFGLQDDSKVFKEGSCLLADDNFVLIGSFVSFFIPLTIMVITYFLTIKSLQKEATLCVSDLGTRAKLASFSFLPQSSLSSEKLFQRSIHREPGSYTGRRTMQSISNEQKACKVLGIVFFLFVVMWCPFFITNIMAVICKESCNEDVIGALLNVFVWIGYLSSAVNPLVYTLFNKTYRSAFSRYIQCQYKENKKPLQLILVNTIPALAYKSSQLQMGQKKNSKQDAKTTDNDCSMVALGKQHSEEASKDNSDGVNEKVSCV
Structures can show the parent of a compound that is named as a salt.
property.measured: IC50 (µM)
# number only, unit µM dropped from output

Problem: If you can, please state the reported IC50 value of CN1CCC[C@@H]1Cc1c[nH]c2ccc(CCS(=O)(=O)c3ccccc3)cc12 [Eletriptan hydrobromide] .
Solution: 3.8

Problem: If you can, please state the reported IC50 value of N#Cc1ccc(N2CCN(C(=O)COc3ccc4[nH]cc(CCN)c4c3)CC2)cc1 [Donitriptan hydrochloride] .
Solution: 1.48

Problem: If you can, please state the reported IC50 value of CN1CCC(c2c[nH]c3ccc(NC(=O)c4ccc(F)cc4)cc23)CC1 [LY334370 hydrochloride] .
Solution: 7.76

Problem: If you can, please state the reported IC50 value of CNS(=O)(=O)Cc1ccc2[nH]cc(CCCN3CCN(c4ncncc4OC)CC3)c2c1 [Avitriptan fumarate] .
Solution: 7.76

====

Exercise: for every item that follows, state its recorded IC50.
target: 5-ht1E receptor (Homo sapiens); construct: gene HTR1E; full-length human recombinant receptor in CHO-K1 cells (Ogeda); crude membranes; assay: biochemical; assay type: CHO-K1 membranes; design: radioligand competition binding on cell membranes, filtration and TopCount scintillation counting; details: radioligand displacement; read-out: 5‐ht1E / pIC50 (converted)
Structures can show the parent of a compound that is named as a salt.

Problem: If you can, please state the reported IC50 value of CNC1CCc2[nH]c3ccc(C(N)=O)cc3c2C1 (racemic) [Frovatriptan racemate] .
Solution: > 10 µM

Problem: If you can, please state the reported IC50 value of CNS(=O)(=O)Cc1ccc2[nH]cc(CCCN3CCN(c4ncncc4OC)CC3)c2c1 [Avitriptan fumarate] .
Solution: 7.08 µM

Problem: If you can, please state the reported IC50 value of N#Cc1ccc(N2CCN(C(=O)COc3ccc4[nH]cc(CCN)c4c3)CC2)cc1 [Donitriptan hydrochloride] .
Solution: 3.39 µM

Problem: If you can, please state the reported IC50 value of CNS(=O)(=O)Cc1ccc2[nH]cc(CCN(C)C)c2c1 [Sumatriptan succinate] .
Solution: 3.8 µM

Problem: If you can, please state the reported IC50 value of CN1CCC[C@@H]1Cc1c[nH]c2ccc(CCS(=O)(=O)c3ccccc3)cc12 [Eletriptan hydrobromide] .
Solution: 0.123 µM

====

Molecular target: 5-HT2B receptor (Homo sapiens)
Construct: gene HTR2B; full-length human recombinant receptor in CHO-K1 cells (Ogeda); crude membranes
Sequence (P41595 whole entry): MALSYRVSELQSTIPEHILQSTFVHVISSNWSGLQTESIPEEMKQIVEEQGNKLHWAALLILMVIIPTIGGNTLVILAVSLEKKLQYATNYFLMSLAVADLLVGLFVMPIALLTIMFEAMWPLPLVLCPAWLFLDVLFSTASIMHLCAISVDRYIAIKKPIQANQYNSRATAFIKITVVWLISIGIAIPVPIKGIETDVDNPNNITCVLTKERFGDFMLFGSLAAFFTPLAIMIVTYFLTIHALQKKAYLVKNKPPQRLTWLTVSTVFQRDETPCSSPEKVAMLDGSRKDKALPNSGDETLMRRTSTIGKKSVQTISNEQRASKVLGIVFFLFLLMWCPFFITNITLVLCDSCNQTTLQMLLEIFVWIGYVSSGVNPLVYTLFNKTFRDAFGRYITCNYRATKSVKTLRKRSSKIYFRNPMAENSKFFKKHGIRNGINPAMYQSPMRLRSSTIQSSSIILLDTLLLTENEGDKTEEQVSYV
Assay: cell-based
Parameters: species or system CHO-K1; IPOne HTRF agonist assay, IP1 accumulation in adherent transfected cells
Settings: IP; read-out: 5‐HT2B / IP (converted)
Procedure: The assay was performed on adherent cells. For agonist testing, the medium was removed and 20 μl of assay buffer plus 20 μl of the studied agonist or the reference agonist were added in each well. The plate was incubated for 60 min at 37°C with 5% CO2. IP1‐D2 reagent and anti‐IP1 cryptate reagents were dispensed in the wells, and IP1 concentrations were then measured following the manufacturer instructions (IPOne HTRF assay kit; Cisbio International, Codolet, France). […]
Structures can show the parent of a compound that is named as a salt.
Exercise: for every item that follows, state its recorded EC50.

Problem: If you can, please state the reported EC50 value of CNS(=O)(=O)Cc1ccc2[nH]cc(CCCN3CCN(c4ncncc4OC)CC3)c2c1 [Avitriptan fumarate] .
Solution: 389 nM

Problem: If you can, please state the reported EC50 value of CN(C)[C@@H]1CCc2[nH]c3ccc(NC(=O)c4ccc(F)cc4)cc3c2C1 [LY344864 hydrochloride] .
Solution: > 10000 nM

Problem: If you can, please state the reported EC50 value of CN1CCC[C@@H]1Cc1c[nH]c2ccc(CCS(=O)(=O)c3ccccc3)cc12 [Eletriptan hydrobromide] .
Solution: 155 nM

Problem: If you can, please state the reported EC50 value of CNS(=O)(=O)CCc1ccc2[nH]cc(C3CCN(C)CC3)c2c1 [Naratriptan hydrochloride] .
Solution: > 10000 nM

====

Exercise: for every item that follows, state its recorded EC50.
biological target: 5-HT2A receptor (Homo sapiens); construct: gene HTR2A; full-length human recombinant receptor in CHO-K1 cells (Ogeda); crude membranes; test: cell-based; parameters: species or system CHO-K1; IPOne HTRF agonist assay, IP1 accumulation in adherent transfected cells; conditions: IP; read-out: 5‐HT2A / IP (converted)
Counter-ions that a name gives are not always drawn.
# number only, unit nM dropped from output

Problem: If you can, please state the reported EC50 value of N#Cc1ccc(N2CCN(C(=O)COc3ccc4[nH]cc(CCN)c4c3)CC2)cc1 [Donitriptan hydrochloride] .
Solution: 7.94

Problem: If you can, please state the reported EC50 value of CNS(=O)(=O)Cc1ccc2[nH]cc(CCCN3CCN(c4ncncc4OC)CC3)c2c1 [Avitriptan fumarate] .
Solution: 123

Problem: If you can, please state the reported EC50 value of CN1CCC[C@@H]1Cc1c[nH]c2ccc(CCS(=O)(=O)c3ccccc3)cc12 [Eletriptan hydrobromide] .
Solution: 851

====

target: 5-HT1F receptor (Homo sapiens); construct: gene HTR1F; full-length human recombinant receptor in CHO-K1 cells (Ogeda); test: biochemical; assay type: CHO-K1 membranes; set-up: GTPγS agonist functional assay; settings: GTPγS
Sequence (P30939 whole entry): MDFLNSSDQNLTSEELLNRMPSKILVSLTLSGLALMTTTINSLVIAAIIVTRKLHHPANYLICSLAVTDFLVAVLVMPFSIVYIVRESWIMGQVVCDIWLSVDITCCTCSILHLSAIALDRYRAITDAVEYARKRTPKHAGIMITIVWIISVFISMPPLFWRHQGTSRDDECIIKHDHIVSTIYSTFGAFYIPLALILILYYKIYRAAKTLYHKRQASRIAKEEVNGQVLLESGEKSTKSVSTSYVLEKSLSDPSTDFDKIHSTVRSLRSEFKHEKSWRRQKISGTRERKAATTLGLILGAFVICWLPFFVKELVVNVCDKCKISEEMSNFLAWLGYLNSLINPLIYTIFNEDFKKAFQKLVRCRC
Structures can show the parent of a compound that is named as a salt.
property.measured: EC50 (nM)
# number only, unit nM dropped from output

Problem: If you can, please state the reported EC50 value of CNS(=O)(=O)CCc1ccc2[nH]cc(C3CCN(C)CC3)c2c1 [Naratriptan hydrochloride] .
Solution: 8.91

Problem: If you can, please state the reported EC50 value of CN1CCC[C@@H]1Cc1c[nH]c2ccc(CCS(=O)(=O)c3ccccc3)cc12 [Eletriptan hydrobromide] .
Solution: 132

Problem: If you can, please state the reported EC50 value of CNC1CCc2[nH]c3ccc(C(N)=O)cc3c2C1 (racemic) [Frovatriptan racemate] .
Solution: 447

Problem: If you can, please state the reported EC50 value of CNS(=O)(=O)Cc1ccc2[nH]cc(CCCN3CCN(c4ncncc4OC)CC3)c2c1 [Avitriptan fumarate] .
Solution: 891

Problem: If you can, please state the reported EC50 value of CN(C)[C@@H]1CCc2[nH]c3ccc(NC(=O)c4ccc(F)cc4)cc3c2C1 [LY344864 hydrochloride] .
Solution: 14.1

====

molecular target: 5-HT1B receptor (Homo sapiens, UniProt P28222); construct: gene HTR1B; full-length human recombinant receptor in CHO-K1 cells (Ogeda); crude membranes; assay: biochemical; format: CHO-K1 membranes; set-up: GTPγS agonist functional assay
Sequence (P28222 whole entry): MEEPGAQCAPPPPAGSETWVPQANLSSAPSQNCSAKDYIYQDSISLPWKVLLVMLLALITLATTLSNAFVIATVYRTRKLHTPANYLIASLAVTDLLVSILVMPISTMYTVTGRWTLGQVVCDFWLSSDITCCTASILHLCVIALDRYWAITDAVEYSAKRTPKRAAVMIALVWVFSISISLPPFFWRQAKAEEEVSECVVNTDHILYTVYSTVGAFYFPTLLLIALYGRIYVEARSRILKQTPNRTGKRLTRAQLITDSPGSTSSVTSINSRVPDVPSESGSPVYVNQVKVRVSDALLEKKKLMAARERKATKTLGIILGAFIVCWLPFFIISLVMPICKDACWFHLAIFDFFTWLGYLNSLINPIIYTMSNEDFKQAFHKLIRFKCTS
Where a name gives a salt, the structure may show the parent alone.
property.measured: pEC50
Please treat pEC50 as minus the base-10 logarithm of the molar concentration.

Problem: If you can, please state the reported pEC50 value of N#Cc1ccc(N2CCN(C(=O)COc3ccc4[nH]cc(CCN)c4c3)CC2)cc1 [Donitriptan hydrochloride] .
Solution: 9.52

====

Exercise: for every item that follows, state its recorded pEC50.
target: 5-ht1E receptor (Homo sapiens); construct: gene HTR1E; full-length human recombinant receptor in CHO-K1 cells (Ogeda); crude membranes; assay: cell-based; parameters: species or system CHO-K1; cAMP HTRF agonist assay, Gi coupled receptors, inhibition of stimulated cAMP; details: cAMP
Counter-ions that a name gives are not always drawn.
Please treat pEC50 as minus the base-10 logarithm of the molar concentration.

Problem: If you can, please state the reported pEC50 value of CN1CCC[C@@H]1Cc1c[nH]c2ccc(CCS(=O)(=O)c3ccccc3)cc12 [Eletriptan hydrobromide] .
Solution: 7.53

Problem: If you can, please state the reported pEC50 value of CNC1CCc2[nH]c3ccc(C(N)=O)cc3c2C1 (racemic) [Frovatriptan racemate] .
Solution: 5.04

Problem: If you can, please state the reported pEC50 value of CNS(=O)(=O)Cc1ccc2[nH]cc(CCCN3CCN(c4ncncc4OC)CC3)c2c1 [Avitriptan fumarate] .
Solution: 5.52

Problem: If you can, please state the reported pEC50 value of CNS(=O)(=O)Cc1ccc2[nH]cc(CCN(C)C)c2c1 [Sumatriptan succinate] .
Solution: 5.99

Problem: If you can, please state the reported pEC50 value of CNS(=O)(=O)CCc1ccc2[nH]cc(C3CCN(C)CC3)c2c1 [Naratriptan hydrochloride] .
Solution: 7.75
